# study_system: T1, Goat anti-Human Kappa
# T1 construct: Positive control; also called biotinylated goat anti-human kappa light chain
# protocol_summary: ELISA; positive control; further: test concentration or dose not given here
recorded_endpoint: optical density (OD)
Response body: numeric value in OD, unit text excluded.

Examples with their reported optical density follow.
binder	u	optical density
369_C12 (antibody, V domains shown, VH/VL only) VH: EVQLLESGGGLVQPGGSLRLSCAASGFTFSSYGMNWVRQAPGKGLEWVANINYNGGYKGYADSVKGRFTISRDNSKNTLYLQMNSLRAEDTAVYYCARGATWHDTHLDYWGQGTLVTVSS VL: DIQMTQSPSSLSASVGDRVTITCRASQSILTYLNWYQQKPGKAPKLLIYAATSRHSGVPSRFSGSGSGTDFTLTISSLQPEDFATYYCQQSYDTPLTFGGGTKVEIK	OD	3.74
373_D06 (antibody, V domains shown, VH/VL only) VH: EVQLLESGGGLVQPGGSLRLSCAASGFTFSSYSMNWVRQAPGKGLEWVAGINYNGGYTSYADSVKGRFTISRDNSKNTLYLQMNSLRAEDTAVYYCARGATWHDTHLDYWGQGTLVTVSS VL: DIQMTQSPSSLSASVGDRVTITCRASQSIVTYLNWYQQKPGKAPKLLIYAATSRASGVPSRFSGSGSGTDFTLTISSLQPEDFATYYCQQSYDTPLTFGGGTKVEIK	OD	3.21
369_H02 (antibody, V domains shown, VH/VL only) VH: EVQLLESGGGLVQPGGSLRLSCAASGFTFDDYSMNWVRQAPGKGLEWVSNINYNGGYKSYADSVKGRFTISRDNSKNTLYLQMNSLRAEDTAVYYCARGATWHDTHLDYWGQGTLVTVSS VL: DIQMTQSPSSLSASVGDRVTITCRASQSIISYLNWYQQKPGKAPKLLIYAATSRASGVPSRFSGSGSGTDFTLTISSLQPEDFATYYCQQSYDSPLTFGGGTKVEIK	OD	3.57
374_H05 (antibody, V domains shown, VH/VL only) VH: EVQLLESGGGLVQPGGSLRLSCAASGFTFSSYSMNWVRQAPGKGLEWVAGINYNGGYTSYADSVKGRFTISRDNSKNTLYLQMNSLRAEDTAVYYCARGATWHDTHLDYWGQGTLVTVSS VL: DIQMTQSPSSLSASVGDRVTITCRASQSILSYVNWYQQKPGKAPKLVIYAATSRASGVPSRFSGSGSGTDFTLTISSLQPEDFATYYCQQSYDNPLTFGGGTKVEIK	OD	3.04
370_E04 (antibody, V domains shown, VH/VL only) VH: EVQLLESGGGLVQPGGSLRLSCAASGFTFSSYSMNWVRQAPGKGLEWVANINYNGGYKGYADSVKGRFTISRDNSKNTLYLQMNSLRAEDTAVYYCARGATWHDTHLDYWGQGTLVTVSS VL: DIQMTQSPSSLSASVGDRVTITCRASQSILTYLNWYQQKPGKAPKLLIYAVTSLHSGVPSRFSGSGSGTDFTLTISSLQPEDFATYYCQQSYETPLTFGGGTKVEIK	OD	3.4

Task: Using the record for 376_A05 (antibody, V domains shown, VH/VL only) VH: EVQLLESGGGLVQPGGSLRLSCAASGFTFSSYSMNWVRQAPGKGLEWVAGINYNSGYKGYADSVKGRFTISRDNSKNTLYLQMNSLRAEDTAVYYCARGATWHDTHLDYWGQGTLVTVSS VL: DIQMTQSPSSLSASVGDRVTITCRASQSILTYLNWYQQKPGKAPKLLIYAATSRASGVPSRFSGSGSGTDFTLTISSLQPEDFATYYCQQSYNTPLTFGGGTKVEIK , report its optical density.
Result: 3.18

Task: What do you get for 376_H11 (antibody, V domains shown, VH/VL only) VH: EVQLLESGGGLVQPGGSLRLSCAASGFTFDSYSMNWVRQAPGKGLEWVSNINYNGGYTGYADSVKGRFTISRDNSKNTLYLQMNSLRAEDTAVYYCARGANWHDTALDYWGQGTLVTVSS VL: DIQMTQSPSSLSASVGDRVTITCRASQSISRYLNWYQQKPGKAPKLLIYAVTSLASGVPSRFSGSGSGTDFTLTISSLQPEDFATYYCQQSYESPLTFGGGTKVEIK ?
Result: 3.43
